Source: patent US20250320312A1

Target: T1, Peptide 4: Biotin-AGGGGSGGGGSGGGGSAAA-Tyr-acid (N-terminal biotin; C-terminal acid)
T1 construct: control peptide without PC
T1 peptide: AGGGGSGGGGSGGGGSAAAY
Assay: scFv ELISA
assay.endpoint: OD450 (OD450)
Form entry: value (OD450) — number only.

## Input Find the recorded OD450 belonging to PcOxP_DB01_C08 (scFv, V domains shown, scFv in periplasmic extract) VH: EVQLLESGGGLVQPGGSLRLSCAASGFTFSDGYMEWVRQAPGKGLEWVAASRNKANDYTTEYADSVKGRFTISRDNSKNTLYLQMNSLRAEDTAVYYCARDYYASSYWYFDVWGQGTLVTVSS VL: DIQMTQSPSSLSASVGDRVTITCRASESISSSKNKVHYLAWYQQKPGKAPKLLIYGASNRYYGVPSRFSGSGSGTDFTLTISSLQPEDFATYYCAQFYSYPLTFGGGTKVEIK and report it.
## Output 0.06

## Input Find the recorded OD450 belonging to PcOxP_DB02_A10 (scFv, V domains shown, scFv in periplasmic extract) VH: EVQLLESGGGLVQPGGSLRLSCAASGFAFSDFYMEWVRQAPGKGLEWVAASRNKANDYTTEYADSVKGRFTISRDNSKNTLYLQMNSLRAEDTAVYYCARDYYGSSYWYFDVWGQGTLVTVSS VL: DIQMTQSPSSLSASVGDRVTITCTASESLYSSKHKVHYLAWYQQKPGKAPKLLIYGASNRQSGVPSRFSGSGSGTDFTLTISSLQPEDFATYYCAQFYAYPLTFGGGTKVEIK and report it.
## Output 0.05

## Input Find the recorded OD450 belonging to PcOxP_DB03_A09 (scFv, V domains shown, scFv in periplasmic extract) VH: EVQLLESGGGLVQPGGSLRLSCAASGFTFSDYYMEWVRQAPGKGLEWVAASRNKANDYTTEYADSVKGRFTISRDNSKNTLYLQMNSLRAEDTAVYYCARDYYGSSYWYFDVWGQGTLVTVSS VL: DIQMTQSPSSLSASVGDRVTITCTASESLYSSKHKVHYLAWYQQKPGKAPKLLIYGASNRGIGVPSRFSGSGSGTDFTLTISSLQPEDFATYYCAQFYSYPLTFGGGTKVEIK and report it.
## Output 0.05
